Listed here: items and their measured remaining at 0.5 h, 1 µM.
Experiment: Metabolic stability in human liver microsomes assessed as compound remaining at 1 uM after 30 mins
Type: ADME, Microsome
Conditions: read-out: Stability
Output spec: scalar in %, unitless text.

Solved entries:
- molecule: "Cc1nnc([C@H]2CCCN2C(=O)Nc2ccc(C(F)(F)F)cc2)n1Cc1ccc(Cl)cc1"
  remaining at 0.5 h, 1 µM, %: 100
- molecule: "O=C(Nc1ccc(C(F)(F)F)cc1)N1CCC[C@@H]1c1ncnn1Cc1ccc(Cl)cc1"
  remaining at 0.5 h, 1 µM, %: 61
- molecule: "O=C(Nc1ccc(C(F)(F)F)cc1)N1CCC[C@@H]1c1nncn1Cc1ccc(Cl)cc1"
  remaining at 0.5 h, 1 µM, %: 52
- molecule: "O=C(Nc1ccc(C(F)(F)F)cc1)N1CCCC1c1nccn1Cc1ccc(Cl)cc1 (stereo not given)"
  remaining at 0.5 h, 1 µM, %: 39

Measured remaining at 0.5 h, 1 µM, O=C(Nc1ccc(C(F)(F)F)cc1)N1CCC[C@@H]1c1nnnn1Cc1ccc(Cl)cc1 : 59
